As shown below, each of these compounds has a reported IC50 value.
Biological target: human TLR9 (Homo sapiens, UniProt Q9NR96)
Sequence (Q9NR96 26-1032): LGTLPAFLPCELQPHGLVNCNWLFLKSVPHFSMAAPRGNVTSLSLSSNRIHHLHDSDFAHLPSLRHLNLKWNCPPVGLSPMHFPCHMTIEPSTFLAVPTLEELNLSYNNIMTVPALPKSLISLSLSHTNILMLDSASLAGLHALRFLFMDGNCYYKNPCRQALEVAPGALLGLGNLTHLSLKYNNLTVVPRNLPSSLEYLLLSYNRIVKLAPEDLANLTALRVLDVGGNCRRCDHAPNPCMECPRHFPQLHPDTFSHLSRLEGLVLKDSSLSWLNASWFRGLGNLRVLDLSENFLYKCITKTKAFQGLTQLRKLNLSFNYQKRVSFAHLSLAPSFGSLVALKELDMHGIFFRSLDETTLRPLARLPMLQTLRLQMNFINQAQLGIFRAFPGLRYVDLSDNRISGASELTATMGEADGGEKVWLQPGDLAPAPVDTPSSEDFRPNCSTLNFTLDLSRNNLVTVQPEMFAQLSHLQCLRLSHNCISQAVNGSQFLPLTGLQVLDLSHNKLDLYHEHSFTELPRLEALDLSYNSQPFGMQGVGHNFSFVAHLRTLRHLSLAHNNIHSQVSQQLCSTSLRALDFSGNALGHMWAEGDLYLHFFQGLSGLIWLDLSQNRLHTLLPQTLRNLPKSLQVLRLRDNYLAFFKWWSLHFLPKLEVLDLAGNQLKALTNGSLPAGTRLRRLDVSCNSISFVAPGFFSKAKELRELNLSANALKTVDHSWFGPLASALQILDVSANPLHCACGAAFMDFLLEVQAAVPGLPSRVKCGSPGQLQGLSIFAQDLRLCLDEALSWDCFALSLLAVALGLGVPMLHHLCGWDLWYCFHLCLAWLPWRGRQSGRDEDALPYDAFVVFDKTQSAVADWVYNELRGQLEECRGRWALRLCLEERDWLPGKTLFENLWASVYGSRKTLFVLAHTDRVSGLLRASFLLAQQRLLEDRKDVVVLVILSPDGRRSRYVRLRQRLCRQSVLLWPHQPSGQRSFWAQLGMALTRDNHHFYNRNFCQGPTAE
Assay: TLR9 inhibition reporter assay (HEK-Blue cells, SEAP reporter, ODN2006 stimulation)
Conditions: HEK-Blue cells overexpressing human TLR9, SEAP reporter, ODN2006 5 nM

Compound | Measured target | IC50
CC(C)c1c(-c2ccc3[nH]nnc3c2)[nH]c2ccc(C3CCNCC3)cc12 | human TLR9 (Homo sapiens, UniProt Q9NR96) | 0.1 to 1 µM
Cc1nnn2ccc(-c3[nH]c4ccc(C5CCN(C6CCOCC6)CC5)cc4c3C(C)C)cc12 | human TLR9 (Homo sapiens, UniProt Q9NR96) | 0.1 to 1 µM
CCN(CC)C(=O)C1CCCN(CC(=O)N2CCC(c3ccc4[nH]c(-c5ccnc6[nH]ncc56)c(C(C)C)c4c3)CC2)C1 (stereo not shown) | human TLR9 (Homo sapiens, UniProt Q9NR96) | 0.1 to 1 µM
Cc1cc(-c2[nH]c3ccc(C4CCN(CCCS(C)(=O)=O)CC4)cc3c2C(C)C)cn2nnnc12 | human TLR9 (Homo sapiens, UniProt Q9NR96) | 1 to 50 µM
Cc1ncc(CN2CCC(c3ccc4[nH]c(-c5ccnc6[nH]nc(C)c56)c(C(C)C)c4c3)CC2)[nH]1 | human TLR9 (Homo sapiens, UniProt Q9NR96) | 0.1 to 1 µM
CC(C)c1c(-c2cccn3ncnc23)[nH]c2ccc(C3CCN(C(=O)CN(C)C)CC3)cc12 | human TLR9 (Homo sapiens, UniProt Q9NR96) | 1 to 50 µM
Cc1cn2c(C)cc(-c3[nH]c4ccc(C5CCNCC5)cc4c3C(C)C)cc2n1 | human TLR9 (Homo sapiens, UniProt Q9NR96) | 0.1 to 1 µM
CC(C)c1c(-c2cn(C)c3ncccc23)[nH]c2ccc(C3CCN(C4CCOCC4)CC3)cc12 | human TLR9 (Homo sapiens, UniProt Q9NR96) | 1 to 50 µM
Cc1nc2cc(-c3[nH]c4ccc(C5CCN(CC(=O)N(C)C)CC5)cc4c3C(C)C)cc(C)c2o1 | human TLR9 (Homo sapiens, UniProt Q9NR96) | 1 to 50 µM
Cc1cc(-c2[nH]c3ccc(C4CCNCC4)cc3c2C(C)C)cc2ccnn12 | human TLR9 (Homo sapiens, UniProt Q9NR96) | 1 to 50 µM
Cc1cc(-c2[nH]c3ccc(C4CCNCC4)cc3c2C(C)C)cc2cnnn12 | human TLR9 (Homo sapiens, UniProt Q9NR96) | 1 to 50 µM
Cc1cc(-c2[nH]c3ccc(C4CCN(CC(N)=O)CC4)cc3c2C(C)C)cn2nnnc12 | human TLR9 (Homo sapiens, UniProt Q9NR96) | 1 to 50 µM
CC(C)c1c(-c2ccn3nncc3c2)[nH]c2ccc(C3CCNCC3)cc12 | human TLR9 (Homo sapiens, UniProt Q9NR96) | 1 to 50 µM
CCc1c(-c2ccnc3[nH]ncc23)[nH]c2ccc(C3CCN(Cc4nc(C)oc4C)CC3)cc12 | human TLR9 (Homo sapiens, UniProt Q9NR96) | 1 to 50 µM
CCOc1cc(-c2[nH]c3ccc(C4CCN(CC(=O)N(C)C)CC4)cc3c2C(C)C)cc2nc(C)nn12 | human TLR9 (Homo sapiens, UniProt Q9NR96) | 1 to 50 µM
CC(C)c1c(-c2ccnc3[nH]ncc23)[nH]c2ccc(C3CCN(C(=O)CN(C)C)CC3)cc12 | human TLR9 (Homo sapiens, UniProt Q9NR96) | 1 to 50 µM
Cc1cc(-c2[nH]c3ccc(C4CCN(CC(=O)N(C)C)CC4)cc3c2C(C)C)cc2cccnc12 | human TLR9 (Homo sapiens, UniProt Q9NR96) | 1 to 50 µM
Cc1nc[nH]c1CN1CCC(c2ccc3[nH]c(-c4ccnc5[nH]cnc45)c(C(C)C)c3c2)CC1 | human TLR9 (Homo sapiens, UniProt Q9NR96) | 0.1 to 1 µM
CC(C)c1c(-c2c[nH]c3cccnc23)[nH]c2ccc(C3CCNCC3)cc12 | human TLR9 (Homo sapiens, UniProt Q9NR96) | 0.1 to 1 µM
Cc1c(-c2ncnc3c2cnn3C)[nH]c2ccc(C3CCN(C4CCN(C(C)C)CC4)CC3)cc12 | human TLR9 (Homo sapiens, UniProt Q9NR96) | 0.1 to 1 µM
CNC(=O)CN1CCC(c2ccc3[nH]c(-c4cnc5ccnn5c4)c(C(C)C)c3c2)CC1 | human TLR9 (Homo sapiens, UniProt Q9NR96) | 1 to 50 µM
CNC(=O)CN1CCC(c2ccc3[nH]c(-c4ccc5ncc(C#N)n5c4)c(C(C)C)c3c2)CC1 | human TLR9 (Homo sapiens, UniProt Q9NR96) | > 50 µM
CC(C)c1c(-c2c[nH]c3cnccc23)[nH]c2ccc(C3CCNCC3)cc12 | human TLR9 (Homo sapiens, UniProt Q9NR96) | 0.1 to 1 µM
CC(C)c1c(-c2cn(C)c3ncccc23)[nH]c2ccc(C3CCN(CC(=O)N(C)C)CC3)cc12 | human TLR9 (Homo sapiens, UniProt Q9NR96) | 1 to 50 µM
CNC(=O)CN1CCC(c2ccc3[nH]c(-c4cc(OC)n5cc(C)nc5c4)c(C(C)C)c3c2)CC1 | human TLR9 (Homo sapiens, UniProt Q9NR96) | 1 to 50 µM
CCc1c(-c2ccnc3nn[nH]c23)[nH]c2ccc(C3CCNCC3)cc12 | human TLR9 (Homo sapiens, UniProt Q9NR96) | 1 to 50 µM
Cc1cc(-c2[nH]c3ccc(C4CCN(C(=O)CCN5CCC6CC65)CC4)cc3c2C(C)C)cn2nnnc12 (stereo not shown) | human TLR9 (Homo sapiens, UniProt Q9NR96) | 1 to 50 µM
CC(=O)N1CCC(c2ccc3[nH]c(-c4ccnc5[nH]ncc45)c(C(C)C)c3c2)CC1 | human TLR9 (Homo sapiens, UniProt Q9NR96) | > 50 µM
CC(C)c1c(-c2cnc3ncnn3c2)[nH]c2ccc(C3CCNCC3)cc12 | human TLR9 (Homo sapiens, UniProt Q9NR96) | 0.1 to 1 µM
Cc1cn2cc(-c3[nH]c4ccc(C5CCN(C(C)C)CC5)cc4c3C(C)C)ccc2n1 | human TLR9 (Homo sapiens, UniProt Q9NR96) | 0.1 to 1 µM
CCc1ncc(CN2CCC(c3ccc4[nH]c(-c5ccnc6[nH]ncc56)c(CC)c4c3)CC2)[nH]1 | human TLR9 (Homo sapiens, UniProt Q9NR96) | 0.1 to 1 µM
